# Tested on: A. baumannii chromosomal class C
# TEST PROTOCOL: CLSI broth dilution MIC determination
# Assay type: cell-based
# CONDITION SET: Acinetobacter baumannii, read-out: MIC
# MIC annotations
PARAMETER: MIC (µg/mL)

COMPOUND | RELATION OPERATOR | RECORDED VALUE
CC[C@H]1OC(=O)[C@@](C)(F)C(=O)[C@H](C)[C@@H](OC2OC(C)CC(N(C)C)C2O)[C@](C)(OC)C[C@@H](C)C(=O)[C@H](C)[C@H]2N(CCCCn3cc(-c4cccc(N)c4)nn3)C(=O)O[C@]12C (some centres unmarked) [Solithro, solithromycin, reference compound] | = | 8
CC[C@H]1OC(=O)[C@@](C)(F)C(=O)[C@H](C)[C@@H](O[C@@H]2OC(C)CC(N(C)C)C2O)[C@](C)(OC)C[C@@H](C)C(=O)C[C@H]2N(CCCCn3cc(-c4cccc(N)c4)nn3)C(=O)O[C@]12C (some centres unmarked) | = | 32
CC[C@H]1OC(=O)[C@@H](C)C(=O)[C@H](C)[C@@H](O[C@@H]2OC(C)CC(N(C)C)C2O)[C@](C)(OC)C[C@@H](C)C(=O)[C@H](C)[C@H]2N(C/C=C/Cn3cc(-c4cccc(N)c4)nn3)C(=O)O[C@]12C (some centres unmarked) | > | 32
CC[C@H]1OC(=O)[C@@](C)(F)C(=O)[C@H](C)[C@@H](O[C@@H]2OC(C)CC(N(C)C)C2O)[C@](C)(OC)C[C@@H](C)C(=O)[C@H](C)[C@H]2N(CC#CCn3cc(-c4cccc(N)c4)nn3)C(=O)O[C@]12C (some centres unmarked) | = | 32
C=C1C(=O)[C@H](C)C[C@@](C)(OC)[C@H](O[C@@H]2OC(C)CC(N(C)C)C2O)[C@@H](C)C(=O)[C@@H](C)C(=O)O[C@H](CC)[C@@]2(C)OC(=O)N(CCCCn3cc(-c4cccc(N)c4)nn3)[C@H]12 (some centres unmarked) | > | 32

* * *

This section presents compounds with their documented MIC values.
# Tested on: S. aureus USA600, GISA
# TEST PROTOCOL: CLSI broth dilution MIC determination
# Type: cell-based
# CONDITION SET: S. aureus USA600, GISA; Gram-positive

COMPOUND | MIC
CC[C@H]1OC(=O)[C@H](C)C(=O)[C@H](C)[C@@H](O[C@@H]2OC(C)CC(N(C)C)C2O)[C@](C)(OC)C[C@@H](C)C(=O)[C@H](C)[C@H]2N(C/C=C/Cn3nnc(-c4ccccn4)n3)C(=O)O[C@]12C (stereo partly drawn) | > 32 µg/mL
CC[C@H]1OC(=O)[C@@](C)(F)C(=O)[C@H](C)[C@@H](O[C@@H]2OC(C)CC(N(C)C)C2O)[C@](C)(OC)C[C@@H](C)C(=O)[C@H](C)[C@H]2N(C/C=C/Cn3nnc(-c4ccccn4)n3)C(=O)O[C@]12C (stereo partly drawn) | > 32 µg/mL
CC[C@H]1OC(=O)[C@@](C)(F)C(=O)[C@H](C)[C@@H](O[C@@H]2OC(C)CC(N(C)C)C2O)[C@](C)(OC)C[C@@H](C)C(=O)[C@H](C)[C@H]2N(CC#CCn3cc(-c4cccc(N)c4)nn3)C(=O)O[C@]12C (stereo partly drawn) | 32 µg/mL
CC[C@H]1OC(=O)[C@H](C)C(=O)[C@H](C)[C@@H](O[C@@H]2OC(C)CC(N(C)C)C2O)[C@](C)(OC)C[C@@H](C)C(=O)[C@H](C)[C@H]2N(C/C=C/Cn3cc(-c4ccccn4)nn3)C(=O)O[C@]12C (stereo partly drawn) | > 32 µg/mL
CC[C@H]1OC(=O)[C@H](C)C(=O)[C@H](C)[C@@H](O[C@@H]2OC(C)CC(N(C)C)C2O)[C@](C)(OC)C[C@@H](C)C(=O)[C@H](C)[C@H]2N(CC#CCn3cc(-c4cccc(N)c4)nn3)C(=O)O[C@]12C (stereo partly drawn) | > 32 µg/mL
CC[C@H]1OC(=O)[C@H](C)C(=O)[C@H](C)[C@@H](O[C@@H]2OC(C)CC(N(C)C)C2O)[C@](C)(OC)C[C@@H](C)C(=O)[C@H](C)[C@H]2N(CC3CC3Cn3cc(-c4cccc(N)c4)nn3)C(=O)O[C@]12C (single isomer, unassigned) [FSM-100428] | > 32 µg/mL

* * *

# Tested on: P. aeruginosa MP-8 PAO1:mex (mex-oprM-deletion)
# TEST PROTOCOL: CLSI broth dilution MIC determination
# Assay type: cell-based
# CONDITION SET: Pseudomonas aeruginosa, PAO1

MOLECULE | MIC, µg/mL
CC[C@H]1OC(=O)[C@H](C)C(=O)[C@H](C)[C@@H](O[C@@H]2OC(C)CC(N(C)C)C2O)[C@](C)(OC)C[C@@H](C)C(=O)[C@H](C)[C@H]2N(NCCCn3nnc4ccccc43)C(=O)O[C@]12C (some centres unmarked) | 8
CC[C@H]1OC(=O)[C@@](C)(F)C(=O)[C@H](C)[C@@H](O[C@@H]2OC(C)CC(N(C)C)C2O)[C@](C)(OC)C[C@@H](C)C(=O)[C@H](C)[C@H]2N(CC#CCn3cc(-c4cc(N)nc(N)n4)nn3)C(=O)O[C@]12C (some centres unmarked) | 8
CC[C@H]1OC(=O)[C@H](C)C(=O)[C@H](C)[C@@H](O[C@@H]2OC(C)CC(N(C)C)C2O)[C@](C)(OC)C[C@@H](C)C(=O)[C@H](C)[C@H]2N(NC/C=C/c3ccnc4ccccc34)C(=O)O[C@]12C (some centres unmarked) | 32
CC[C@H]1OC(=O)[C@@](C)(F)C(=O)[C@H](C)[C@@H](O[C@@H]2OC(C)CC(N(C)C)C2O)[C@](C)(OC)C[C@@H](C)C(=O)[C@H](C)[C@H]2N(CC#CCn3cc(-c4cccc(F)n4)nn3)C(=O)O[C@]12C (some centres unmarked) | 4
CC[C@H]1OC(=O)[C@@](C)(F)C(=O)[C@H](C)[C@@H](O[C@@H]2OC(C)CC(N(C)C)C2O)[C@](C)(OC)C[C@@H](C)C(=O)[C@H](C)[C@H]2N(CC#CCn3cc(-c4cnccn4)nn3)C(=O)O[C@]12C (some centres unmarked) | 16

* * *

Known MIC of a selection of compounds
# Test system: K. pneumoniae TEM-10
# TEST PROTOCOL: CLSI broth dilution MIC determination
# Format: cell-based
# CONDITION SET: Klebsiella pneumoniae, TEM10, read-out: MIC

COMPOUND | MIC
CC[C@H]1OC(=O)[C@@](C)(F)C(=O)[C@H](C)[C@@H](O[C@@H]2OC(C)CC(N(C)C)C2O)[C@](C)(OC)C[C@@H](C)C(=O)C[C@H]2N(CCCCn3cc(-c4cccc(N)c4)nn3)C(=O)O[C@]12C (stereo partly shown) [FSM-21598] | > 32 µg/mL
C=C1C(=O)[C@H](C)C[C@@](C)(OC)[C@H](O[C@@H]2OC(C)CC(N(C)C)C2O)[C@@H](C)C(=O)[C@@H](C)C(=O)O[C@H](CC)[C@@]2(C)OC(=O)N(CCCCn3cc(-c4cccc(N)c4)nn3)[C@H]12 (stereo partly shown) [FSM-21828] | > 32 µg/mL
CC[C@H]1OC(=O)[C@H](C)[C@@H](O[C@H]2C[C@@](C)(OC)[C@@H](O)[C@H](C)O2)[C@H](C)[C@@H](O[C@@H]2O[C@H](C)C[C@H](N(C)C)[C@H]2O)[C@](C)(O)C[C@@H](C)CN(C)[C@H](C)[C@@H](O)[C@]1(C)O [Azithro, azithromycin, reference compound] | 8 µg/mL
CC[C@H]1OC(=O)[C@@](C)(F)C(=O)[C@H](C)[C@@H](O[C@@H]2OC(C)CC(N(C)C)C2O)[C@](C)(OC)C[C@@H](C)C(=O)[C@H](C)[C@H]2N(CC#CCn3cc(-c4cccc(N)c4)nn3)C(=O)O[C@]12C (stereo partly shown) [FSM-100426] | > 32 µg/mL
CC[C@H]1OC(=O)[C@@H](C)C(=O)[C@H](C)[C@@H](O[C@@H]2OC(C)CC(N(C)C)C2O)[C@](C)(OC)C[C@@H](C)C(=O)[C@H](C)[C@H]2N(C/C=C/Cn3cc(-c4cccc(N)c4)nn3)C(=O)O[C@]12C (stereo partly shown) [FSM-100432] | > 32 µg/mL
CC[C@H]1OC(=O)[C@@](C)(F)C(=O)[C@H](C)[C@@H](OC2OC(C)CC(N(C)C)C2O)[C@](C)(OC)C[C@@H](C)C(=O)[C@H](C)[C@H]2N(CCCCn3cc(-c4cccc(N)c4)nn3)C(=O)O[C@]12C (stereo partly shown) [Solithro, solithromycin, reference compound] | > 32 µg/mL
CC[C@H]1OC(=O)[C@H](C)C(=O)[C@H](C)[C@@H](O[C@@H]2OC(C)CC(N(C)C)C2O)[C@](C)(OC)C[C@@H](C)C(=O)C[C@H]2N(CCCCn3cc(-c4cccc(N)c4)nn3)C(=O)O[C@]12C (stereo partly shown) [FSM-21535] | > 32 µg/mL
